Source of measurements: PubChem BioAssay AID493035

molecular target: Perilipin-5 (Homo sapiens) + 1-acylglycerol-3-phosphate O-acyltransferase ABHD5 (Homo sapiens) (UniProt Q00G26+Q8WTS1); assay: blockers of ABHD5 binding to perilipin-5 – cell lysate, split luciferase complementation, luminescence, NIH validation set, pilot screen (AID 493035);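 also: 0% = DMSO only wells while the 100% control is not stated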; conditions: split G. princeps luciferase complementation, lysates, 4 h; at 7.9 µM, hits give high values
Sequence (Q00G26 whole entry, looked up): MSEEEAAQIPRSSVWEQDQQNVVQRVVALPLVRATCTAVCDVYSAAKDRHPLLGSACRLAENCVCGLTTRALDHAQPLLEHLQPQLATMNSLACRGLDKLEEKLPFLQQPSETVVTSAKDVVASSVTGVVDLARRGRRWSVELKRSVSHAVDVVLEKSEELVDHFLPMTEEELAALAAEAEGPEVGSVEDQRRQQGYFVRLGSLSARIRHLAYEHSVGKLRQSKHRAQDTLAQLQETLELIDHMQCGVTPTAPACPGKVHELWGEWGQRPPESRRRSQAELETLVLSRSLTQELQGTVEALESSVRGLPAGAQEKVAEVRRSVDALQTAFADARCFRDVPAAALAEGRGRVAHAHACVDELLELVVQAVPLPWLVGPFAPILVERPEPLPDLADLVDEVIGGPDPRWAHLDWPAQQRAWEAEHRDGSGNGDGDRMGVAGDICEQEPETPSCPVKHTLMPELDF
Sequence (Q8WTS1 whole entry, looked up): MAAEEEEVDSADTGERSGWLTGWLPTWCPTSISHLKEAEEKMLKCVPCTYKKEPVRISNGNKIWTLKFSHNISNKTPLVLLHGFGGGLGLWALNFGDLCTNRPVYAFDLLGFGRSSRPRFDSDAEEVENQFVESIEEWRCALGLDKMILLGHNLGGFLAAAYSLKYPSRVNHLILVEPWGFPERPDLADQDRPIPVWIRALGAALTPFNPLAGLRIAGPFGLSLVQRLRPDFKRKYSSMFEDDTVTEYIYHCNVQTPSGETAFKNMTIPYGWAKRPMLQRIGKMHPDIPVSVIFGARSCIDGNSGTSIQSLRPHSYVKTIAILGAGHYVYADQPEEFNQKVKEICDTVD
In all, about 2,000 compounds went through this assay and about 45 (2%) were called active. The full list was thinned out, with actives kept by preference.

molecule	inhibition / %
O=C1CCCN1CCCn1cnc2c([nH]c3ccc(F)cc32)c1=O	1.78
O=C(c1ccc(Cl)cc1)C1CCCN(C(=O)/C=C/c2ccccn2)C1 (centres undefined)	8.56
COc1ccc(/C=C/C(=O)c2cc3cccc(OC)c3oc2=O)cc1	69.5
CCOc1ccc(CC2c3cc(OCC)c(OCC)cc3CCN2C(=O)CN2CCN(C)CC2)cc1OCC (centres undefined)	-0.88
O=C(NCc1ccc(N2CCCC2=O)cc1)c1ccc(F)cc1	7.2
COc1ccc(C2=NOC(COc3ccc4c(C)cc(=O)oc4c3)C2)c(OC)c1 (centres undefined)	27.1
c1coc(-c2nnc3n2C2(CCCC2)Cc2ccccc2-3)c1	-2.54
Cc1ccc(S(=O)(=O)n2ccnc2)cc1C	-3.74
COc1ccc(NC(=O)C2CSC3c4ccccc4C(=O)N23)cc1 (centres undefined)	4.85
Cc1ccc(C(=O)O)cc1NC(=O)c1cccs1	-5.26
COc1ccccc1C(=O)Nc1cc2cc(Br)ccc2oc1=O	-7.35
Nc1ccc2cn[nH]c2c1	-10.6
CC(C)C12CN3CC(C(C)C)(CN(C1)C3c1ccccc1O)C2=O (centres undefined)	0.76
N#C/C(=C\c1ccc(O)c(O)c1)C(=O)NCCCc1ccccc1	28.2
Cc1oc2c(C)c3oc(=O)c4c(c3cc2c1C)CCCC4	1.69
COc1cccc2cc(-c3ccccc3)c(=O)oc12	-4.71
COc1ccc(/C=C2\CCc3ccccc3C2=O)c(OC)c1OC	-7.62
Cc1ccc(S(=O)(=O)N2CCC(C(=O)N[C@@H](C)C(=O)NC3CCS(=O)(=O)C3)CC2)cc1 (some centres undefined)	-6.13
c1ccc(Cn2ncc3c(Nc4ccccc4)ncnc32)cc1	-6.21
COc1ccccc1C(CCN(Cc1ccccc1)C(C)=O)c1ccco1 (centres undefined)	7.01
O=C(O)CCCCCN1C(=O)C(=O)/C(=C(/O)c2ccccc2)C1c1ccccc1 (centres undefined)	-14.1
COc1ccc(/C=C2\CCn3c2nc2cc(C(=O)O)ccc2c3=O)cc1OC	-3.54
S=C(NCc1ccccc1)NCc1cccc(CNC(=S)NCc2ccccc2)c1	10.2
Cc1cccc(C(=O)c2cccc(C)c2)c1	-8.84

---

molecular target: Perilipin-5 (Homo sapiens) + 1-acylglycerol-3-phosphate O-acyltransferase ABHD5 (Homo sapiens) (UniProt Q00G26+Q8WTS1); experiment: blockers of ABHD5 binding to perilipin-5 – cell lysate, split luciferase complementation, luminescence, NIH validation set, pilot screen (AID 493035);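 also: 0% = DMSO only wells while the 100% control is not stated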; conditions: split G. princeps luciferase complementation, lysates, 4 h; at 7.9 µM
In all, about 2,000 compounds went through this assay and about 45 (2%) were called active.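 The calls were made as follows: active = inhibition above the mean of all tested compounds plus 3 SD (cut at about 49% in these data); inactive = the rest.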 The entries come from a sample that favours actives as a whole.
Outcomes: T for active, F for inactive

compound	category-label
CC1(c2ccccc2)CC(C)(C)N2C(=O)C(=O)c3cccc1c32 (stereo unspecified)	T
CCOc1ccc(N2C(=O)CNC2=S)cc1	F
COc1cc2c3c(c1)C(C)CC(C)(C)N3C(=O)C2=O (stereo unspecified)	F
CSCCC(NC(=O)/C(=C/c1ccc2c(c1)OCO2)NC(=O)c1cccc([N+](=O)[O-])c1)C(=O)O (stereo unspecified)	F
OC[C@@H](O)[C@@H](O[C@H]1O[C@H](CO)[C@@H](O)[C@H](O)[C@H]1O)[C@H](O)[C@@H](O)CO	F
C[C@]12CC[C@@H]3c4ccc(O)cc4C(=O)C[C@H]3[C@@H]1CC[C@@H]2O	F
COc1ccc(C(=O)Nc2ccccc2C(=O)NC(Cc2c[nH]c3ccccc23)C(=O)O)cc1 (stereo unspecified)	F
COC(=O)C1=C(C)NC(C)=C([N+](=O)[O-])C1c1ccccc1C(F)(F)F (stereo unspecified)	F
COc1ccc(C2=C(CN(C)C)C(c3ccccc3)c3ccccc3O2)cc1 (stereo unspecified)	F
CC(=O)N[C@@H](CS)C(=O)O	F
Cc1ccc(S(=O)(=O)N[C@@H](Cc2ccccc2)C(=O)CCl)cc1	T
CNS(=O)(=O)c1ccc(C)cc1	F
O=C(Nc1ccc(Oc2c(F)c(F)c(F)c(F)c2F)cc1)OC1CCN2Cc3ccccc3N=C12 (stereo unspecified)	T
CC1(C)CC(NC(=O)C23CCC(C)(C(=O)C2=O)C3(C)C)CC(C)(C)N1 (stereo unspecified)	F
Cn1c(=O)oc2cc(S(=O)(=O)N3CCc4ccccc4C3)ccc21	F
CC(C)(C)C(=O)N1CCCC1C(=O)O (stereo unspecified)	F

---

target: Perilipin-5 (Homo sapiens) + 1-acylglycerol-3-phosphate O-acyltransferase ABHD5 (Homo sapiens) (UniProt Q00G26+Q8WTS1); assay: blockers of ABHD5 binding to perilipin-5 – cell lysate, split luciferase complementation, luminescence, NIH validation set, pilot screen (AID 493035);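 also: 0% = DMSO only wells while the 100% control is not stated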; conditions: split G. princeps luciferase complementation, lysates, 4 h; at 7.9 µM, hits give high values
The campaign covered roughly 2,000 compounds. About 45 (2%) were called active. Only a selection was taken, and actives are over-represented in it overall.
Measured inhibition values are reported for all entries that follow.

molecule	inhibition, %
Cc1ccc(CSCC(=O)NCCCN2CCOCC2)cc1	2.33
O=C(NO)c1ccccc1O	-11.8
COc1ccc(C(=O)/C=C/c2cc(C(=O)O)cc3c2OCOC3)c(O)c1	70.3
COc1ccc(C)cc1S(=O)(=O)Nc1ccc(F)cc1	0.68
C/C(=N\NC(=O)C1(C)CC1(Br)Br)c1ccc([N+](=O)[O-])cc1 (centres undefined)	-8.2
O=C(CCCCCCCC(=O)c1ccccc1)c1ccccc1	-4.5
CCc1c(C)c2ccc(OCC(=O)OC(C)C)c(C)c2oc1=O	-3.95
COc1ccc(C(=O)Nc2nc3ccccc3c(=O)[nH]2)cc1	0.27
COc1ccccc1C(=O)Oc1ccc2c(c1)O/C(=C\c1ccncc1)C2=O	35.9
CC(C)N1C(=O)/C(=C\c2nc3ccccc3c(=O)[nH]2)c2ccccc21	64.9
Cc1ccc(C2=NOC(=O)/C2=C\C=C\c2ccccc2)cc1	94.4
COc1ccc2c(c1)C=CC1(O2)N(CCO)c2ccccc2C1(C)C (centres undefined)	50.9
COc1cc(OC)c2c(C)c(Cl)c(=O)oc2c1	-6.84
COCCCN1C(=O)/C(=C\c2cccs2)C(C(=O)OC)=C1C	0.91
COc1ccc(NC(=O)C2C(=O)N(CCO)C3(C)CC2c2ccccc2O3)cc1 (centres undefined)	-8.28
CCS(=O)(=O)Nc1cc(OC)c(OC)cc1Cc1nccc2cc(OC)c(OC)cc12	-5.76
O=C(/C=C/c1ccccc1)NC(=O)c1ccccc1O	12.7
CSCCC(NC(C)=O)C(=O)Oc1ccc2c3c(c(=O)oc2c1)CCCC3 (centres undefined)	1.97
O=c1c(-c2ccc3c(c2)OCCO3)coc2cc(OC3OC(CO)C(O)C(O)C3O)ccc12 (centres undefined)	-6.25
CCCC(CCC)C(=O)OC1C[C@H]2CC[C@@H](C1)[N+]2(C)C (some centres undefined)	-9.28
Cn1cc(/C=C/C(=O)c2ccccc2)c2ccccc21	13.7
COc1cccc(/C=C/C(=O)c2c(O)cc(C)oc2=O)c1O	44.4
COc1ccc(C(=O)COc2ccc(F)cc2)c(O)c1	-6.5
CSCCC(NC(=O)OC(C)(C)C)C(=O)Oc1ccc2c(=O)c(-c3ccc4c(c3)OCCO4)coc2c1 (centres undefined)	69.1
COC(=O)C1=C(C)N(Cc2ccco2)C(=O)/C1=C\c1ccc([N+](=O)[O-])cc1	84.5
COc1ccc(-c2nnc(-c3cc4c(ccc5ccccc54)oc3=O)o2)cc1	5.2
COC(=O)c1ccc(=O)n(Cc2ccco2)c1	18.6
CC1(C)c2ccccc2N2CC(=O)N(CC(N)=O)C21C (centres undefined)	4.9
N/C(=N\OC(=O)/C=C/c1ccccc1)c1ccc(Br)cc1	-11.8
CC(C)C[C@H](NC(=O)NC(C)C)C(=O)O	-0.17
CC1(C)C2CCC1(C(=O)O)c1nc3ccccc3nc12 (centres undefined)	-0.64
O=C(O)/C=C/c1cccc(OCc2ccccc2)c1	-15.3
NC(=O)c1c(-c2ccccc2)oc2ccc(O)cc12	-5.91
CC(=O)CCc1oc2ccccc2c1-c1ccccc1	-0.95
O=C(NC(=S)Nc1ccc(N2CCN(C(=O)c3ccccc3)CC2)cc1)c1cccs1	11.4
O=C(O)CCn1c(=S)n(CCC(=O)O)c2ccccc21	8.91
CS(=O)(=O)Oc1ccc2c(c1)O/C(=C\C=C\c1ccccc1)C2=O	53.5
Cc1ccc2[nH]c3c(=O)n(CCCN4CCN(C)CC4)cnc3c2c1	-5.12
Cc1ccc2c(CC(=O)O)coc2c1	-6.46
